Biological target: trypsin-like activity of the 20S proteasome (Oryctolagus cuniculus, UniProt G1SWK8)
Construct: In Vitro Purified Rabbit Muscle 20S Proteasome Activity Assays; from tissue; host or cells: rabbit muscle
Sequence (G1SWK8 1-271): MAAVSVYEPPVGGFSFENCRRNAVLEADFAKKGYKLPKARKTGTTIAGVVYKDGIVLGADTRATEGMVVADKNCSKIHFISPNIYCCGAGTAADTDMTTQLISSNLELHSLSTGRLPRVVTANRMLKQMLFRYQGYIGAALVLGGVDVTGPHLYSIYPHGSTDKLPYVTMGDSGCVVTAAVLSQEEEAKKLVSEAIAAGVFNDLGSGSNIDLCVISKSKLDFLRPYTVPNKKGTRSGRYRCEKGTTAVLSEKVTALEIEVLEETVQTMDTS
Assay: In vitro purified rabbit muscle 20S proteasome assay, trypsin-like (T-L) activity, Boc-LRR-AMC substrate
Assay type: biochemical
Conditions: rabbit 20S proteasome; mean ± SD of 3 or more experiments; read-out: T-L IC50
quantity measured: pIC50
Worth noting: pIC50 values are minus log10 of concentrations stated in mol/L.

See these solved cases before continuing.
smiles record | target | data value
C[C@@]12OC(=O)[C@]1([C@@H](O)[C@@H]1C=CCCC1)NC(=O)[C@@H]2CCI | trypsin-like activity of the 20S proteasome (Oryctolagus cuniculus, UniProt G1SWK8) | 7.89
C[C@H]1C(=O)N[C@@]2([C@@H](O)[C@@H]3C=CCCC3)C(=O)O[C@@]12C | trypsin-like activity of the 20S proteasome (Oryctolagus cuniculus, UniProt G1SWK8) | 6.43
C[C@@]12OC(=O)[C@]1([C@@H](O)[C@@H]1C=CCCC1)NC(=O)[C@@H]2CCF | trypsin-like activity of the 20S proteasome (Oryctolagus cuniculus, UniProt G1SWK8) | 6.28
C[C@@]12OC(=O)[C@]1([C@@H](O)[C@@H]1C=CCCC1)NC(=O)[C@@H]2CCO | trypsin-like activity of the 20S proteasome (Oryctolagus cuniculus, UniProt G1SWK8) | 5.92
C[C@@]12OC(=O)[C@]1([C@@H](O)[C@@H]1C=CCCC1)NC(=O)[C@@H]2CCBr | trypsin-like activity of the 20S proteasome (Oryctolagus cuniculus, UniProt G1SWK8) | 7.85
CCC[C@H]1C(=O)N[C@@]2([C@@H](O)[C@@H]3C=CCCC3)C(=O)O[C@@]12C | trypsin-like activity of the 20S proteasome (Oryctolagus cuniculus, UniProt G1SWK8) | 5.96

Give recorded pIC50 with trypsin-like activity of the 20S proteasome (Oryctolagus cuniculus, UniProt G1SWK8) for the following compound: "CC[C@H]1C(=O)N[C@@]2([C@@H](O)[C@@H]3C=CCCC3)C(=O)O[C@@]12C"
6.21

* * *

Target: caspase-like activity of the 20S proteasome (Oryctolagus cuniculus, UniProt A0A5F9DQW2)
Construct: In Vitro Purified Rabbit Muscle 20S Proteasome Activity Assays; from tissue; host or cells: rabbit muscle
Sequence (A0A5F9DQW2 1-212): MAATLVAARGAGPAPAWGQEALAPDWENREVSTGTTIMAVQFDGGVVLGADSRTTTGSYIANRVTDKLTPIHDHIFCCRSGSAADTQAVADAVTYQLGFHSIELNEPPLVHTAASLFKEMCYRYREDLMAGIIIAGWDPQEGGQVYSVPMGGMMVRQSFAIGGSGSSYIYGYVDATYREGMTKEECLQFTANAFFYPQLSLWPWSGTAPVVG
Assay: In vitro purified rabbit muscle 20S proteasome assay, caspase-like (C-L) activity, Z-LLEAMC substrate
Assay type: biochemical
Details: rabbit 20S proteasome; mean ± SD of 3 or more experiments; read-out: C-L IC50
Listed next: entries and their corresponding IC50.
Number only, in nM; omit the unit.

See these solved cases before continuing.
molecule | quantity measured | u | data value
C[C@@]12OC(=O)[C@]1([C@@H](O)[C@@H]1C=CCCC1)NC(=O)[C@@H]2CCF [CH2CH2F] | IC50 | nM | 781
CCC[C@H]1C(=O)N[C@@]2([C@@H](O)[C@@H]3C=CCCC3)C(=O)O[C@@]12C [CH2CH2CH3] | IC50 | nM | 1200
C[C@@]12OC(=O)[C@]1([C@@H](O)[C@@H]1C=CCCC1)NC(=O)[C@@H]2CCBr [CH2CH2Br] | IC50 | nM | 290
C[C@@]12OC(=O)[C@]1([C@@H](O)[C@@H]1C=CCCC1)NC(=O)[C@@H]2CCO [CH2CH2OH] | IC50 | nM | 1200
C[C@H]1C(=O)N[C@@]2([C@@H](O)[C@@H]3C=CCCC3)C(=O)O[C@@]12C [CH3] | IC50 | nM | 460

As a next step, examine the molecule that follows.
Which IC50 value is on record for C[C@@]12OC(=O)[C@]1([C@@H](O)[C@@H]1C=CCCC1)NC(=O)[C@@H]2CCI [CH2CH2I] ?
410
